# measured-target: T1, Human latent myostatin (human, UniProt O14793 25-266; O14793 267-375)
# T1 construct: Biotinylated in the ELISAs; also called human myostatin latent form
# T1 sequence 1: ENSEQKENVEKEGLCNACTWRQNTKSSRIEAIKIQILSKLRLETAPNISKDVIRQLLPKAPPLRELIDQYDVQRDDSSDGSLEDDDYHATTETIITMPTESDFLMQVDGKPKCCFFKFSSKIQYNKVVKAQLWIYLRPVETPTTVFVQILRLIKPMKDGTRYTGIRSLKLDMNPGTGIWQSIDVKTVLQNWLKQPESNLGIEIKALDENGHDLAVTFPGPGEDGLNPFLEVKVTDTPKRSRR
# T1 sequence 2: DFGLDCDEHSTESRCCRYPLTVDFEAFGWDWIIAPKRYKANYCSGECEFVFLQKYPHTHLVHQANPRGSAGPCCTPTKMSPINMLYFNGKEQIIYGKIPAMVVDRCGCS
# experiment-description: SPR (BIACORE T200), 37 C, pH5.8, avidity condition (capture 185 RU), 1:1 fit; pH 5.8
Items are presented alongside their recorded Kd.
The answer is to be given in nM; state only the numeric part.

Q. Return reported Kd. Input binder: MS_M103205H781-SG1/M103202L719-SK1 (antibody, human IgG1, kappa, V domains shown, also called MS1032LO02-SG1; MSLO-02) VH: QVTLKESGPVLVKPTETLTLTCTVSGIDLSHTDISWVRQAPGKGLEWVGIISYAGSTYYMSWAKGRLTISKDTSKNQVVLTMTNMDPVDTATYYCARGVPAYSHGGDLWGQGTLVTVSS VL: DIVMTQSPATLSLSPGERATLSCQSSQSVYHNNWLSWFQQKPGQPPKLLIYWASTLAFGVPSRFSGSGSGTDFTLTISSLQPEDAATYYCAGGYGGGLYAFGQGTKVEIKR
A. 24.3

Q. Return reported Kd. Input binder: MS_M103205H714-SG1/M103202L861-SK1 (antibody, human IgG1, kappa, V domains shown, also called MS1032LO01-SG1; MSLO-01) VH: QVTLKESGPVLVKPTETLTLTCTVSGIDLSHTDISWVRQAPGKGLEWVGIISYAGSTYYASWAKGRLTISKDTSKNQVVLTMTNMDPVDTATYYCARGVPAYSHGGDLWGQGTLVTVSS VL: DIVMTQSPATLSLSPGERATLSCTSSQSVYHNNWLSWFQQKPGQPPKLLIYWASTLAYGVPSRFSGSGSGTDFTLTISSLQPEDAATYYCAGGYGGGRYAFGQGTKVEIKR
A. 19.9

Q. Return reported Kd. Input binder: MS_M103205H781-SG1/M103202L813-SK1 (antibody, human IgG1, kappa, V domains shown, also called MS1032LO03-SG1; MSLO-03) VH: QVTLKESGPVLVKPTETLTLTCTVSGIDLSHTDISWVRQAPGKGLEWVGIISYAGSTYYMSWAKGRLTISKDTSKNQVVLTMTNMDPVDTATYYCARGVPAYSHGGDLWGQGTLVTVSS VL: DIVMTQSPATLSLSPGERATLSCQTSQSVYHDNWLSWFQQKPGQPPKLLIYWASTLASGVPSRFSGSGSGTDFTLTISSLQPEDAATYYCAGGYGGGRYAFGQGTKVEIKR
A. 9.66

Q. Return reported Kd. Input binder: MS_M103205H000-SG1/M103202LO00-SK1 (antibody, human IgG1, kappa, V domains shown, Humanized MST1032, not pH-dependent; also called MS1032LO00-SG1; Ab001) VH: QVTLKESGPVLVKPTETLTLTCTVSGIDLSSYDISWVRQAPGKGLEWVGIISYAGSTYYASWAKGRLTISKDTSKNQVVLTMTNMDPVDTATYYCARGVPAYSTGGDLWGQGTLVTVSS VL: DIVMTQSPATLSLSPGERATLSCQSSQSVYDNNWLSWFQQKPGQPPKLLIYWASTLASGVPSRFSGSGSGTDFTLTISSLQPEDAATYYCAGGYGGGLYAFGQGTKVEIKR
A. 0.0797
